These data points were gathered from patent US12479830B2.

Target: Human α2δ-1 subunit of Cav2.2 calcium channel (Homo sapiens, UniProt P54289)
Sequence (P54289 25-1103): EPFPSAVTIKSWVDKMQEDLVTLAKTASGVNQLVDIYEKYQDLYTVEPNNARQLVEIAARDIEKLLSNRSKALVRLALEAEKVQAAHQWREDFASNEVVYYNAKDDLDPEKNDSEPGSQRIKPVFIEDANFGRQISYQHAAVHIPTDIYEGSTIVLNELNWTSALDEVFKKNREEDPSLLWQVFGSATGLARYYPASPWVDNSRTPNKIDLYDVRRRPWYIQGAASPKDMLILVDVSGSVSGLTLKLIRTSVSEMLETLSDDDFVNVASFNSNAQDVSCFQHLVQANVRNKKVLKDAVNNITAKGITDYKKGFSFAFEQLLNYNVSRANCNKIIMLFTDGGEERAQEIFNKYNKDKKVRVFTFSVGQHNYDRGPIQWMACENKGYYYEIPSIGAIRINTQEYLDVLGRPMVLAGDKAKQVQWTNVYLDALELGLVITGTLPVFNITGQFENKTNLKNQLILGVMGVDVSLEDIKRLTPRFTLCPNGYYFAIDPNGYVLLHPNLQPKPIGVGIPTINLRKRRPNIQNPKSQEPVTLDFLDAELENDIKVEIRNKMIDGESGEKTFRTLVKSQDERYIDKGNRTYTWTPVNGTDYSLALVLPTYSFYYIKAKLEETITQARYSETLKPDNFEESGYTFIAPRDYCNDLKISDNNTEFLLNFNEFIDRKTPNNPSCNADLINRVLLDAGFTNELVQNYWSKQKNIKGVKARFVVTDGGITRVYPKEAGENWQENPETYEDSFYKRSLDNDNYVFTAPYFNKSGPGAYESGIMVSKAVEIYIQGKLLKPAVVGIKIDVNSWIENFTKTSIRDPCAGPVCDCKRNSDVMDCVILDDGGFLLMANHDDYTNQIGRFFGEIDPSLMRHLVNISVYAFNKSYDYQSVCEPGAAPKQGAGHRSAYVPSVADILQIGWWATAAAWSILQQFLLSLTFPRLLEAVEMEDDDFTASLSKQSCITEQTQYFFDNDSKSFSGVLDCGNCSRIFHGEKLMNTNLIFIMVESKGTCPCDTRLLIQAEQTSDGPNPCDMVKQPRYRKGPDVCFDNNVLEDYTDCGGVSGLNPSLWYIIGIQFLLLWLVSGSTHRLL
Experiment: Human α2δ-1 subunit of Cav2.2 calcium channel assay ([3H]-gabapentin binding)
Settings: binding to the α2δ-1 subunit of voltage-gated calcium channels, expressed as Ki class; + also covers inhibition between 1% and 50%
pKi: −log10 of the molar value.
We begin with a simple list: items and their reported pKi.

q: Report the value of pKi obtained on Human α2δ-1 subunit of Cav2.2 calcium channel (Homo sapiens, UniProt P54289) for CCC[C@@H](c1nc2ncc(F)cc2c(=O)n1CC)N1CCCN(C)CC1 .
a: < 5.30

====

Molecular target: Human α2δ-1 subunit of Cav2.2 calcium channel (Homo sapiens, UniProt P54289)
Experiment: Human α2δ-1 subunit of Cav2.2 calcium channel assay ([3H]-gabapentin binding)
Settings: binding to the α2δ-1 subunit of voltage-gated calcium channels, expressed as Ki class; + also covers inhibition between 1% and 50%
recorded.metric: Ki

Sample records with Ki:
| molecule | Ki |
| --- | --- |
| CCCC(c1nc2cc(C)c(Br)cc2c(=O)n1CC)N1CCCN(CC)CC1 (stereo not shown) [Example 48] | < 500 nM |
| CCCC(c1nc2ccc(NC3CCN(C)CC3)cc2c(=O)n1CC)N1CCCN(C)CC1 (stereo not shown) [Example 206] | < 500 nM |
| CCC[C@H](c1nc2ncc(Br)cc2c(=O)n1CC)N1CCNC[C@@H](C)C1 [Example 199] | < 500 nM |

Now consider the entry below.
q: Report the value of Ki obtained on Human α2δ-1 subunit of Cav2.2 calcium channel (Homo sapiens, UniProt P54289) for CCCC(c1nc2c(Cl)cc(F)cc2c(=O)n1CC)N1CCCN(CC)CC1 (stereo not shown) [Example 65] .
a: > 5000 nM
